// provenance: patent US11827701B2

Target: biotinylated (prokaryotic) IL-6 (Homo sapiens, UniProt P05231)
Sequence (P05231 30-212): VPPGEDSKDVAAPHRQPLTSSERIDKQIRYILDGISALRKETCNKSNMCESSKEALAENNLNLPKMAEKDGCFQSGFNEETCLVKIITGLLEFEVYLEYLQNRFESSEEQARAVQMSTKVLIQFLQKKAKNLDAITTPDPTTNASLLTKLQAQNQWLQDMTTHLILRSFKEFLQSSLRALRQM
Experiment: Surface plasmon resonance (Biacore), biotinylated IL-6 captured on streptavidin sensor chip
Assay type: binding
Settings: purified Fab
readout_name: KA (M⁻¹)
One number for each entry, in M⁻¹.

INSERT INTO assay_data (molecule, observed_measurement) VALUES
  ('28C6: antagonistic IL-6-specific Fab clone from immunized llama (antibody, listed as Lama glama, V domains shown) VH: QVQLVESGGGLVQPGGSLRLSCAASGFTFSNYYMTWVRQAPGKGLEWVSSIYSFSGDTAYADSVKGRFTISRDNAKNTLYLQMNKLKSEDTAVYYCTRDLGGVVVTANGYDYWGQGTQVTVSS VL: DIVMTQTPSSLSASLGDRVTITCQASQSISTELSWYQQKPGQTPKLLIYGASRLQTGVPARFSGSGSGTSFTLTISGLEAEDLATYYCLQDYSWPYSFGSGTRL', '4.04e+07');

Let us examine a further case.
Report KA for 24C9: antagonistic IL-6-specific Fab clone from immunized llama (antibody, listed as Lama glama, V domains shown) VH: QVQLVESGGGLVQPGGSLRLSCAASGFTFSSYRMYWVRQPPGKGLEWVSAISAGGGSTYYGDSVKGRFTISRDNAKNTVYLQMNSLKPEDTALYYCKKSTWADGESDYWGQGTQVTVSS VL: QTVVTQEPSLSVSPGGTVTLTCGLSSGSVTASNYPGWFQQTPGQAPRALIYSTNDRHSGVPSRFSGSISGNKAALTITGAQPEDEADYYCALDIGDITEFGGGTHLTVLG please.
1.51e+09
